Data credit: patent US8945864B2

systemName: sorbose dehydrogenase (Sinorhizobium meliloti, UniProt Q92YU0)
Sequence (Q92YU0 entry or part of it): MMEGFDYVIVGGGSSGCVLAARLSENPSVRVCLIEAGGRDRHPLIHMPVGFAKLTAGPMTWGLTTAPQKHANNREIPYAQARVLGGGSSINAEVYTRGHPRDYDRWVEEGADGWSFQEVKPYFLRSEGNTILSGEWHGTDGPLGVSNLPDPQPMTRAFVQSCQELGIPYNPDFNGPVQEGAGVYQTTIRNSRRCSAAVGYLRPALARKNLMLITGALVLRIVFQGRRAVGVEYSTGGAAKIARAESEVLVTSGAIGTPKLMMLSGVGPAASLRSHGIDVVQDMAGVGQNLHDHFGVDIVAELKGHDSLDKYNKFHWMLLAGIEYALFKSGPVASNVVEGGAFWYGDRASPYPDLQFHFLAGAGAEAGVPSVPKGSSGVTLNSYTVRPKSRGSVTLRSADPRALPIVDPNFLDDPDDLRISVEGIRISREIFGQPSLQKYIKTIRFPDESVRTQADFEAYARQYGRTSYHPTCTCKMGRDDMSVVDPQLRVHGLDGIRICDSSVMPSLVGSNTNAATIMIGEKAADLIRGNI
protocolText: Inhibitor test: additive in the reaction solution for the activity measurement
Format: biochemical, Sinorhizobium sp. 97507
assayConditions: additive final concentration 1.0 mM; control without additive = 100%; read-out: Relative activity (%)
measuredQuantity: activity at 1000 µM (%)
Express it in %; write the number only.

IN: Any idea what its activity at 1000 µM is? The compound is c1ccc(-c2ccccn2)nc1 [2,2′-bipyridine]
OUT: 88

IN: Any idea what its activity at 1000 µM is? The compound is O=S(=O)(O)c1cc(O)c(O)c(S(=O)(=O)O)c1 [Tiron]
OUT: 89

IN: Any idea what its activity at 1000 µM is? The compound is CCN1C(=O)C=CC1=O [N-ethylmaleimide]
OUT: 88

IN: Any idea what its activity at 1000 µM is? The compound is c1cnc2c(c1)ccc1cccnc12 [1,10-phenanthroline]
OUT: 77
